Test: 14C assay with IPTG-induced recombinant E. coli cells (14CO2 capture from [14C]-carboxyl-labeled dicamba)
Conditions: IPTG-induced recombinant E. coli cells; [14C]-carboxyl-labeled dicamba; 14CO2 capture
PROPERTY_MEASURED: Dicamba Decarboxylase Activity

MOLECULE | RESULT
103 (protein, Plasmodium yoelii yoelii) MAMEIPTEEIKFLKKEDVQNIDLNGMSKKERYEIWRRIPKVELHCHLDLTFSAEFFLKWARKYNLQPNMSDDEILDHYLFTKEGKSLAEFIRKAISVSDLYRDYDFIEDLAKWAVIEKYKEGVVLMEFRYSPTFVSSSYGLDVELIHKAFIKGIKNATELLNNKIHVALICISDTGHAAASIKHSGDFAIKHKHDFVGFDHGGREIDLKDHKDVYHSVRDHGLHLTVHAGEDATLPNLNTLYTAINILNVERIGHGIRVSESDELIELVKKKDILLEVCPISNLLLNNVKSMDTHPIRKLYDAGVKVSVNSDDPGMFLSNINDNYEKLYIHLNFTLEEFMIMNNWAFEKSFVSDDVKSELKALYF | No
61 (protein, listed as Gordonia amarae) MATGAGSGVPSPADRVIVRSPGVIDVHAHAVLPMSLGCAGAAGPEIGYREDGSPFFRVGEYVLNGVRYEGSAFMDPEVRVAAMDAAGIGLQMISPNPITYFTRLDARSATDYARAHNDAIAEAAGRHPGRLVGAAQLPMQDVPAAIAELERSVRELGLVAAYIDTDIGDRTLDAPELDDFYSAAVELDVPVFIHPSPVGQEGPPDDTRLRRFDLDLLLGFSYDETLAVAALVFGGVLERHPALDVCLSHGGGTLAFVAGRFARAVAKPRAWVPEFLVENGIESYLRRLWLDTHVHSAGSLRLLIDTVGTDRLVFGTNFAGWDADGATEVDALGDLRETTTANAAHLLRLGRA | No
5 (protein, listed as Staphylococcus aureus) MAQNNMEANQMKSITFEEHYVIEDIQKETMNAISADPKGVPMKVMLEGLEKKTGFTNADELSHHDERIQFMNNQDVQIQVLSYGNGSPSNLVGQKAIELCQKANDQLANYIAQYPNRFVGFATLPINEPEAAAREFERCINDLGFKGALIMGRAQDGFLDQDKYDIIFKTAENLGVPIYLHPAPVNSDIYQSYYKGNYPEVTAATFACFGYGWHIDVGIHAIHLVLSGIFDRYPKLNMIIGHWGEFIPFFLERMDEALFAEHLNHPVSYYFKNNFYITPSGMLTKPQFDLVKKEAGIDRILYAADYPYIEPEKLGVFLDELGLTDEEKEKISYTNGAKLLGLSSNN | High
81 (protein, listed as Verticillium dahliae) MAASTKPKVVDIHTHMYPPSYIDILTSRTAIPVVRTFPQAADPRLILLDAEQQALDAALQDPTAKPPGRPLTSHYASLDQKIHFMDTHSIDISVVSLANPWLDFIEPKEAAATARSVNDEFEAMCASQPGRLFFFAALPLTAPLPALLEAVRHVAELEHCRGVILGTSGLGSGLDDPELVPVLEAVAAAALTVFLHPHYGLPNDVWGPRASAEYGHVLPLALGFPMETTIAVARMYLAGVFDRVPALRMLLAHSGGTLPFLAGRIESCILHDGQLVAEGKVGAARRTIWDVLREQVYLDAVIYSEIGLKAAIAASGGADRLMFGTDHPFFPPLGTDEQAKKESRINAGGSRPMITGNAMINGHGGLCNHITQSDYQDVVL | High
